- Test system: SN12C renal
- RUN_DESCRIPTION: NCI-60 one-dose screen, 48 h
- CONDITION: 10 µM unless noted
This is part of a sample that, as a whole, favours compounds with a hit. Of some 83,000 tested, about 20% had one in any assay. Activity calls are given as the source filed them. Rule for the calls: active = growth percent below 10; inactive = the rest.
Outcomes: YES for active, NO for inactive

INSERT INTO assay_data (compound, subject_of_test, class_name) VALUES
  ('O=c1c2cnn(-c3ccccc3)c2n2c(CN3CCOCC3)nnc2n1-c1ccccc1', 'SN12C renal', 'NO'),
  ('COC(=O)C1Cc2ccccc2CN1C(=O)c1ccc2c(c1)Cc1ccccc1-2 (centres undefined)', 'SN12C renal', 'NO'),
  ('COC(=O)c1c2c(c(C)[n+]([O-])c1C)C(=O)C(NCc1cccc(OC)c1)=CC2=O', 'SN12C renal', 'YES'),
  ('Cc1ccc(C2=Nc3c(N)ncnc3NC(c3cccc(Nc4ccnc5cc(C(F)(F)F)ccc45)c3)C2)cc1 (centres undefined)', 'SN12C renal', 'NO'),
  ('O=C(O)CCCN1C(=O)/C(=C/c2cn(-c3ccccc3)nc2-c2ccc([N+](=O)[O-])cc2)SC1=S', 'SN12C renal', 'NO'),
  ('CCCCCCCCCCC(CN(CC)CC)C(O)c1ccccc1 (centres undefined)', 'SN12C renal', 'NO'),
  ('Oc1c(Br)cc(Br)c2ccc(Cn3cc(-c4ccccc4C(F)(F)F)nn3)nc12', 'SN12C renal', 'NO'),
  ('O=C1C(Cl)=C(NCCCCCCNC2=C(Cl)C(=O)c3ccccc3C2=O)C(=O)c2ccccc21', 'SN12C renal', 'NO'),
  ('Cc1ccc(-c2nc(N3CCCNCC3)c3oc(-c4ccc(C)cc4)nc3n2)cc1', 'SN12C renal', 'NO');
